Entries and their Average transmittance (700 nm to 400 nm) Transparent cured film values follow.
Assay: Transmittance of transparent cured film
Format: physicochemical
Conditions: cured at exposure energy quantity 80 mJ/cm^2
Express your answer in %, writing the number without its unit.

Reference set, count: 3
smiles str	numeric result
CCCC1(CCC)c2cc(C(=O)C(CCSc3ccc(Cl)cc3)=NOC(C)=O)ccc2-c2ccc([N+](=O)[O-])cc21	99.1
CCCCCCC1(CCCCCC)c2cc(C(=NOC(C)=O)c3ccccc3C)ccc2-c2ccc([N+](=O)[O-])cc21	99.3
CCCC1(CCC)c2cc(C(=O)c3ccc([N+](=O)[O-])cc3)ccc2-c2ccc(C(C)=NOC(C)=O)cc21	99.3

Switching to the query record.
Q: # query: Average transmittance (700 nm to 400 nm) Transparent cured film of entry `CCCC1(CCC)c2cc(C(CCCCl)=NOC(C)=O)ccc2-c2ccc([N+](=O)[O-])cc21`
Ans: 99.7
